Target: PARP2 FL wt (human (Homo sapiens), UniProt Q9UGN5 1-583)
Sequence (Q9UGN5 whole entry): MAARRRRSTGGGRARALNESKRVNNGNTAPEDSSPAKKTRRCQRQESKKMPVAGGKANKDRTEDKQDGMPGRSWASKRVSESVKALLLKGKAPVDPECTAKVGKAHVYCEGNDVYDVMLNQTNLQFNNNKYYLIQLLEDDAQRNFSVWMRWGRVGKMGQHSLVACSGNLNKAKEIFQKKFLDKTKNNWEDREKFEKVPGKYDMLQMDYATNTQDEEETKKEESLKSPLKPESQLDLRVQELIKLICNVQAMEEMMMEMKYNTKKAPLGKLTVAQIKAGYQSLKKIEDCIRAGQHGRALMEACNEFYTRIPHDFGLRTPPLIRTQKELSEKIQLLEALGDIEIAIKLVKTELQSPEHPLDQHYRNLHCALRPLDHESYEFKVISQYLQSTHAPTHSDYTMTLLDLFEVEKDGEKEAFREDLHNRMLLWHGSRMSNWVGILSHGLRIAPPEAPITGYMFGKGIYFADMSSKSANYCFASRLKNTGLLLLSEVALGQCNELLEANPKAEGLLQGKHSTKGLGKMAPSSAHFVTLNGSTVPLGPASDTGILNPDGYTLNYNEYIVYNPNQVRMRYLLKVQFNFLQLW
Assay: fluorescence polarization; mean and SD of 3 listed KDs (28.05, 21.44, 26.07); FP buffer, salt, pH and temperature not given (as in cited ref 17); crystallization: complex purified in 20 mM Hepes pH 7.5, 300 mM NaCl, 0.5 mM TCEP; crystals
Details: protein: recombinant; tags: His-tag construct, TEV cleaved; label: fluorescein on internal T8 of strand 2; blunt, 20 bp
pKd: −log10 of the molar value.
property.name: pKd

binder="DNA-9 dsDNA (dsDNA, 5'-phosphate on strand 1) DNA 1: GACGCAACCCGGAGAACACA DNA 2: TGTGTTCTCCGGGTTGCGTC" property_name=pKd value_measured=7.60
